Target: SARS-CoV-2 Mac1 (Severe acute respiratory syndrome coronavirus 2)
Experiment: biochemical
Conditions: read-out: %inhibition
Where a name gives a salt, the structure may show the parent alone.
Experimental readout: inhibition at 100 µM (%)

{"Compound": "CC1(C)C[C@@H]1C(=O)N/C(=C\\CCCCSC[C@H](N)C(=O)O)C(=O)O [Cilastatin]", "Observed value": 0}
{"Compound": "CC(C)[C@H](N)C(=O)OCC(CO)OCn1cnc2c(=O)nc(N)[nH]c21 (stereo partly drawn) [Valganciclovir HCl]", "Observed value": 0}
{"Compound": "Nc1nc(=O)[nH]cc1F [Flucytosine]", "Observed value": 0}
{"Compound": "Clc1cccc(Cl)c1NC1=NCCN1 [Clonidine HCl]", "Observed value": 0}
{"Compound": "OCCOc1ccc(/C(=C(/CCCl)c2ccccc2)c2ccccc2)cc1 [Ospemifene]", "Observed value": 16.8}
{"Compound": "Cc1c(F)cc(C(=O)NC2CC2)cc1-c1ccc(C(=O)NCC(C)(C)C)cn1 [Losmapimod (GW856553X)]", "Observed value": 0}
{"Compound": "CCN(CC)CCOC(=O)c1ccc(N)cc1Cl [Chloroprocaine HCl]", "Observed value": 0}
{"Compound": "CC(O)(CS(=O)(=O)c1ccc(F)cc1)C(=O)Nc1ccc(C#N)c(C(F)(F)F)c1 (stereo not drawn) [Bicalutamide]", "Observed value": 0}
{"Compound": "Cc1cn([C@H]2O[C@@H](CO)[C@H](O)[C@H]2F)c(=O)[nH]c1=O [Clevudine]", "Observed value": 18.3}

###

Each entry below carries its recorded inhibition at 100 µM.
Biological target: SARS-CoV-2 Mac1 (Severe acute respiratory syndrome coronavirus 2, UniProt P0DTD1)
Experiment: biochemical
Conditions: read-out: %inhibition
Counter-ions that a name gives are not always drawn.
Experimental readout: inhibition at 100 µM

{"Compound": "CCCNC(C)C(=O)Nc1c(C)csc1C(=O)OC (centres unmarked) [Articaine HCl]", "Experimental readout": "inhibition at 100 µM", "Observed value": "0%"}
{"Compound": "CCOC(=O)[C@H](CCc1ccccc1)N[C@@H](C)C(=O)N1C(=O)N(C)C[C@H]1C(=O)O [Imidapril HCl]", "Experimental readout": "inhibition at 100 µM", "Observed value": "0%"}
{"Compound": "O=C1c2c(O)ccc(O)c2C(=O)c2c(NCCNCCO)ccc(NCCNCCO)c21 [Mitoxantrone 2HCl]", "Experimental readout": "inhibition at 100 µM", "Observed value": "74.8%"}
{"Compound": "COc1ccc(-c2ccc3cc(C(=O)O)ccc3c2)cc1[C@]12C[C@H]3C[C@H](C[C@H](C3)C1)C2", "Experimental readout": "inhibition at 100 µM", "Observed value": "27.7%"}
{"Compound": "CCOC(=O)c1ncn2c1CN(C)C(=O)c1cc(F)ccc1-2", "Experimental readout": "inhibition at 100 µM", "Observed value": "5.44%"}

###

Target: SARS-CoV-2 Mac1 (Severe acute respiratory syndrome coronavirus 2, UniProt P0DTD1)
Assay: biochemical
Conditions: 100 µM; inhibitor
Experimental readout: %inhibition (%)

{"Molecule": "CC(C)c1nc(N(C)S(C)(=O)=O)nc(-c2ccc(F)cc2)c1/C=C/[C@@H](O)C[C@@H](O)CC(=O)O [Rosuvastatin]", "Experimental readout": "%inhibition", "Observed value": 7.223}
{"Molecule": "CC[C@H]1OC(=O)[C@H](C)[C@@H](O[C@H]2C[C@@](C)(OC)[C@@H](O)[C@H](C)O2)[C@H](C)[C@@H](O[C@@H]2O[C@H](C)C[C@H](N(C)C)[C@H]2O)[C@](C)(O)C[C@@H](C)CN(C)[C@H](C)[C@@H](O)[C@]1(C)O [Azithromycin Dihydrate]", "Experimental readout": "%inhibition", "Observed value": 2.079}
{"Molecule": "O=C1O[C@H]([C@@H](O)CO)C(O)=C1O [Vitamin C]", "Experimental readout": "%inhibition", "Observed value": 15.62}
{"Molecule": "CC1CNc2c(cccc2S(=O)(=O)N[C@@H](CCCNC(=N)N)C(=O)N2CC[C@@H](C)C[C@@H]2C(=O)O)C1 (stereo partly shown) [Argatroban]", "Experimental readout": "%inhibition", "Observed value": 4.667}
{"Molecule": "O=C(O)Cc1ccccc1Nc1c(Cl)cccc1Cl [Diclofenac Diethylamine]", "Experimental readout": "%inhibition", "Observed value": 0}
{"Molecule": "CC[C@H]1OC(=O)[C@H](C)[C@@H](O[C@H]2C[C@@](C)(OC)[C@@H](O)[C@H](C)O2)[C@H](C)[C@@H](O[C@@H]2O[C@H](C)C[C@H](N(C)C)[C@H]2O)[C@](C)(O)C[C@@H](C)CN(C)[C@H](C)[C@@H](O)[C@]1(C)O [Azithromycin]", "Experimental readout": "%inhibition", "Observed value": 5.483}
{"Molecule": "CN1[C@@H]2CC[C@H]1C[C@@H](OC(=O)c1c[nH]c3ccccc13)C2 [Tropisetron]", "Experimental readout": "%inhibition", "Observed value": 6.575}

###

Molecular target: SARS-CoV-2 Mac1 (Severe acute respiratory syndrome coronavirus 2)
Assay: biochemical
Details: read-out: %inhibition
Experimental readout: inhibition at 100 µM (%)

{"Compound": "C#C[C@]1(O)CC[C@H]2[C@@H]3CCc4cc(OC)ccc4[C@H]3CC[C@@]21C", "Target desc": "SARS-CoV-2 Mac1 (Severe acute respiratory syndrome coronavirus 2)", "Quantity unit": "%", "Observed value": 0}
{"Compound": "CC(=O)Oc1ccc(C(=C2CCCCC2)c2ccc(OC(C)=O)cc2)cc1", "Target desc": "SARS-CoV-2 Mac1 (Severe acute respiratory syndrome coronavirus 2)", "Quantity unit": "%", "Observed value": 11.6}
{"Compound": "Clc1ccc(C(c2ccccc2Cl)C(Cl)Cl)cc1 (centres unmarked)", "Target desc": "SARS-CoV-2 Mac1 (Severe acute respiratory syndrome coronavirus 2)", "Quantity unit": "%", "Observed value": 46.2}
{"Compound": "CC(C)C[C@H](NC(=O)[C@@H](NC(=O)c1cccc(-c2ccccc2)n1)[C@@H](C)O)B(O)O", "Target desc": "SARS-CoV-2 Mac1 (Severe acute respiratory syndrome coronavirus 2)", "Quantity unit": "%", "Observed value": 0}
{"Compound": "COc1c(N2CCNC(C)C2)c(F)cc2c(=O)c(C(=O)O)cn(C3CC3)c12 (centres unmarked)", "Target desc": "SARS-CoV-2 Mac1 (Severe acute respiratory syndrome coronavirus 2)", "Quantity unit": "%", "Observed value": 1.88}

###

Target: SARS-CoV-2 Mac1 (Severe acute respiratory syndrome coronavirus 2, UniProt P0DTD1)
Assay: biochemical
Conditions: read-out: %inhibition
Structures can show the parent of a compound that is named as a salt.
Use 9% as the dividing line for inhibition at 100 µM, with the line itself on the yes side and lower values as no.

{"Molecule": "CCCCC[C@H](O)/C=C/[C@H]1[C@H](O)CC(=O)[C@@H]1CCCCCCC(=O)O", "Answer label": "no"}
{"Molecule": "Cc1onc(-c2c(F)cccc2Cl)c1C(=O)N[C@@H]1C(=O)N2[C@@H]1SC(C)(C)[C@@H]2C(=O)O [Flucloxacillin sodium]", "Answer label": "no"}
{"Molecule": "NC(=O)c1ncn([C@@H]2O[C@H](CO)[C@@H](O)[C@H]2O)c1O", "Answer label": "no"}
{"Molecule": "CC(CN(C)C)CN1c2ccccc2Sc2ccccc21 (centres unmarked) [Alimemazine Tartrate]", "Answer label": "yes"}
{"Molecule": "CC(=O)/N=c1/sc(S(N)(=O)=O)nn1C [Methazolamide]", "Answer label": "no"}
{"Molecule": "CN1CCCC(n2nc(Cc3ccc(Cl)cc3)c3ccccc3c2=O)CC1 (centres unmarked) [Azelastine HCl]", "Answer label": "yes"}

###

Molecular target: SARS-CoV-2 Mac1 (Severe acute respiratory syndrome coronavirus 2, UniProt P0DTD1)
Experiment: biochemical
Conditions: read-out: %inhibition
Structures can show the parent of a compound that is named as a salt.
Experimental readout: inhibition at 100 µM (%)

{"Molecule": "NCC1(CC(=O)O)CCCCC1 [Gabapentin]", "Experimental readout": "inhibition at 100 µM", "Observed value": 0}
{"Molecule": "CC(=O)Oc1cccc2c1C(=O)c1c(OC(C)=O)cc(C(=O)O)cc1C2=O [Diacerein]", "Experimental readout": "inhibition at 100 µM", "Observed value": 3.21}
{"Molecule": "CCCCCCCCCCCCCCCCOP(=O)([O-])OCC[N+](C)(C)C [Miltefosine]", "Experimental readout": "inhibition at 100 µM", "Observed value": 0}
{"Molecule": "CN(C)/N=N/c1[nH]cnc1C(N)=O [Dacarbazine]", "Experimental readout": "inhibition at 100 µM", "Observed value": 26.1}
{"Molecule": "CN(C)[C@@H]1C(=O)C(C(N)=O)=C(O)[C@@]2(O)C(=O)C3=C(O)c4c(O)cccc4[C@@](C)(O)[C@H]3C[C@@H]12 [Tetracycline HCl]", "Experimental readout": "inhibition at 100 µM", "Observed value": 22.7}
{"Molecule": "Cc1cc(Nc2cc(CN3CCOCC3)c3nc(C)c(Cc4ccc(Cl)cc4F)n3n2)n[nH]1 [Gandotinib (LY2784544)]", "Experimental readout": "inhibition at 100 µM", "Observed value": 0}
{"Molecule": "CC(O)c1ccc(S(=O)(=O)NC(=O)NC2CCCCC2)cc1 (stereo not shown) [Hydroxyhexamide]", "Experimental readout": "inhibition at 100 µM", "Observed value": 28}
{"Molecule": "CCn1c(=O)c2c(nc(/C=C/c3ccc(OC)c(OC)c3)n2C)n(CC)c1=O [Istradefylline]", "Experimental readout": "inhibition at 100 µM", "Observed value": 28.9}
{"Molecule": "CC(C)[C@H](O)C(=O)N[C@@H](C)C(=O)N[C@@H]1C(=O)N(C)CCc2ccccc21 [Semagacestat (LY450139)]", "Experimental readout": "inhibition at 100 µM", "Observed value": 0}
{"Molecule": "CCOc1ccc(Cc2cc([C@@H]3O[C@H](SC)[C@@H](O)[C@H](O)[C@H]3O)ccc2Cl)cc1 [Sotagliflozin (LX4211)]", "Experimental readout": "inhibition at 100 µM", "Observed value": 0}
{"Molecule": "O=c1[nH]c(=O)n([C@H]2C[C@H](O)[C@@H](CO)O2)cc1F [Floxuridine]", "Experimental readout": "inhibition at 100 µM", "Observed value": 0}
{"Molecule": "CC(=O)SCC(Cc1ccccc1)C(=O)NCC(=O)OCc1ccccc1 (stereo not shown) [Racecadotril]", "Experimental readout": "inhibition at 100 µM", "Observed value": 0}
{"Molecule": "CO/N=C(\\C(=O)N[C@@H]1C(=O)N2C(C(=O)OC(C)OC(C)=O)=C(COC(N)=O)CS[C@H]12)c1ccco1 (stereo partly shown) [Cefuroxime axetil]", "Experimental readout": "inhibition at 100 µM", "Observed value": 0}
{"Molecule": "Cc1onc(-c2c(Cl)cccc2Cl)c1C(=O)N[C@@H]1C(=O)N2[C@@H]1SC(C)(C)[C@@H]2C(=O)O [Dicloxacillin Sodium]", "Experimental readout": "inhibition at 100 µM", "Observed value": 10.8}
{"Molecule": "COc1cccc(CCc2ccccc2OCC(CN(C)C)OC(=O)CCC(=O)O)c1 (stereo not shown) [Sarpogrelate hydrochloride]", "Experimental readout": "inhibition at 100 µM", "Observed value": 0}
{"Molecule": "Nc1nc2c(ncn2COC(CO)CO)c(=O)[nH]1 [Ganciclovir]", "Experimental readout": "inhibition at 100 µM", "Observed value": 49.4}
